tested on: C. albicans Wisc.; experiment: In vitro antifungal activity, MIC (modified Autotiter method); assay type: cell-based, Candida albicans; conditions: Candida albicans, 20 h, 18-20 hours at 37° C.; read-out: MIC C. albicans Wisc.
readout-label: MIC (µg/mL)
// units = µg/mL; emit number, no label

CCCCCCNc1cc[n+](CCCCCC[n+]2ccc(NCCCCCC)cc2)cc1 | 15.6
Clc1ccc(Nc2cc[n+](CCCCCCC[n+]3ccc(Nc4ccc(Cl)cc4)cc3)cc2)cc1 | 31.3
CCCCCCCNc1cc[n+](CCCCCCCC[n+]2ccc(NCCCCCCC)cc2)cc1 | 1.95

// switching to the query compound
Please fill in: MIC reported for `CCCCCCCCNc1cc[n+](CCCCCCCC[n+]2ccc(NCCCCCCCC)cc2)cc1` = 1

* * *

tested on: C. albicans Wisc.; assay: In vitro antifungal activity, MIC (modified Autotiter method); assay type: cell-based, Candida albicans; settings: Candida albicans, 20 h, 18-20 hours at 37° C.; read-out: MIC C. albicans Wisc.
Recorded log10(MIC) by entry
Would you kindly interpret these values as log10 of MIC expressed in µg/mL?

# annotated cases, reported log10(MIC) shown
CCCCCCCCCNc1cc[n+](CCCCCCCCCC[n+]2ccc(NCCCCCCCCC)cc2)cc1 | 0.59
Clc1ccc(Nc2cc[n+](CCCCCCCCCC[n+]3ccc(Nc4ccc(Cl)cc4)cc3)cc2)cc1 [Example 79B] | 0.80
CCCCCCCCCCNc1cc[n+](CCCCCCCCC[n+]2ccc(NCCCCCCCCCC)cc2)cc1 | 1.19
CCCCC(CC)CNc1cc[n+](CCCCCCCCCCCC[n+]2ccc(NCC(CC)CCCC)cc2)cc1 (centres unmarked) [Example 41C] | 0.00

Please fill in: log10(MIC) reported for `c1c[n+](CCCCCCCC[n+]2ccc(NC3CCCCC3)cc2)ccc1NC1CCCCC1` = 1.50

Please fill in: log10(MIC) reported for `CCCCCCCCCNc1cc[n+](CCCCCCC[n+]2ccc(NCCCCCCCCC)cc2)cc1` = 0.29

Please fill in: log10(MIC) reported for `CCCCCCNc1cc[n+](CCCCCCC[n+]2ccc(NCCCCCC)cc2)cc1` = 0.89

Please fill in: log10(MIC) reported for CCCCC(CC)CNc1cc[n+](CCCC[n+]2ccc(NCC(CC)CCCC)cc2)cc1 (centres unmarked) = 1.50

* * *

tested on: T. menta. 9129; test: In vitro antifungal activity, MIC (modified Autotiter method); format: cell-based, Trichophyton mentagrophytes; settings: Trichophyton mentagrophytes, 20 h, 18-20 hours at 37° C.; read-out: MIC T. menta. 9129
readout-label: MIC (µg/mL)
// units = µg/mL; emit number, no label

CCCCCCCCNc1cc[n+](CCCCCCC[n+]2ccc(NCCCCCCCC)cc2)cc1 | 1

Please fill in: MIC reported for `c1c[n+](CCCCCCC[n+]2ccc(NC3CCCCC3)cc2)ccc1NC1CCCCC1` = 15.6

Please fill in: MIC reported for `CCCCCCCCCCCCNc1cc[n+](CCCCCCCCCC[n+]2ccc(NCCCCCCCCCCCC)cc2)cc1` = 15.6

Please fill in: MIC reported for `CCCCCCCCCCNc1cc[n+](CCCCCCCCC[n+]2ccc(NCCCCCCCCCC)cc2)cc1` = 3.9

Please fill in: MIC reported for CCCCCCCCCNc1cc[n+](CCCCCCCC[n+]2ccc(NCCCCCCCCC)cc2)cc1 [Example 29C] = 1.95

Please fill in: MIC reported for `CCCCCCNc1cc[n+](CCCCC[n+]2ccc(NCCCCCC)cc2)cc1` = 31.3

Please fill in: MIC reported for `CCCCCCNc1cc[n+](CCCCCCCC[n+]2ccc(NCCCCCC)cc2)cc1` = 7.8

Please fill in: MIC reported for CCCCCCCCNc1cc[n+](CCCCCCCCC[n+]2ccc(NCCCCCCCC)cc2)cc1 [Example 44A] = 1

Please fill in: MIC reported for `CCCCCCCCNc1cc[n+](CCCCCCCCCCCCCC[n+]2ccc(NCCCCCCCC)cc2)cc1` = 1.95

Please fill in: MIC reported for `Clc1ccc(Nc2cc[n+](CCCCCCC[n+]3ccc(Nc4ccc(Cl)cc4)cc3)cc2)cc1` = 7.8

Please fill in: MIC reported for CCCCC(CC)CNc1cc[n+](CCCCCCCCCCCC[n+]2ccc(NCC(CC)CCCC)cc2)cc1 (stereo not shown) [Example 41C] = 1

Please fill in: MIC reported for `CCCCCCCCCCCCNc1cc[n+](CCCCCCCC[n+]2ccc(NCCCCCCCCCCCC)cc2)cc1` = 7.8

Please fill in: MIC reported for `CCCCCCCCNc1cc[n+](CCCCCC[n+]2ccc(NCCCCCCCC)cc2)cc1` = 0.5

Please fill in: MIC reported for `c1c[n+](CCCCCCCCC[n+]2ccc(NC3CCCCC3)cc2)ccc1NC1CCCCC1` = 3.9

Please fill in: MIC reported for `CCCCCCCNc1cc[n+](CCCCCCCCCCCCCC[n+]2ccc(NCCCCCCC)cc2)cc1` = 1

Please fill in: MIC reported for Clc1ccc(Nc2cc[n+](CCCCCC[n+]3ccc(Nc4ccc(Cl)cc4)cc3)cc2)cc1 [Example 77B] = 15.6

Please fill in: MIC reported for `CCCCCCNc1cc[n+](CCCC[n+]2ccc(NCCCCCC)cc2)cc1` = 15.6

Please fill in: MIC reported for `CCCCCCCNc1cc[n+](CCCCCCCC[n+]2ccc(NCCCCCCC)cc2)cc1` = 1.95

Please fill in: MIC reported for Clc1ccc(Nc2cc[n+](CCCC[n+]3ccc(Nc4ccc(Cl)cc4)cc3)cc2)cc1 [Example 76C] = 62.5

Please fill in: MIC reported for `c1c[n+](CCCCCC[n+]2ccc(NC3CCCCC3)cc2)ccc1NC1CCCCC1` = 15.6

Please fill in: MIC reported for CCCCC(CC)CNc1cc[n+](CCCCCC[n+]2ccc(NCC(CC)CCCC)cc2)cc1 (stereo not shown) = 1.95
